test system: HIV-1LAI M184V; assay: p24 reduction assay in MT-2 cells, M184V; format: cell-based; conditions: Human immunodeficiency virus 1, MT2, Table 3; M184V; mean ± SD
pEC50: −log10 of the molar value.
Metric: pEC50

Compound | Meas value
O=C(O)P(=O)(O)O [PFA, phosphonoformate, reference compound] | 4.48

====

tested on: HIV-1LAI (wild type, control); assay: p24 reduction assay in MT-2 cells, wild type virus; type: cell-based; conditions: Human immunodeficiency virus 1, MT2, Table 5; Wild type; mean ± SD; read-out: EC50
Metric: EC50 (µM)

Compound | Unit symbol | Meas value
O=C(O)P(=O)(O)O [PFA, phosphonoformate, reference compound] | µM | 17.7

====

Tested on: 9GC (multinucleoside resistant recombinant virus D67E, S68T, T69S[SA insert], T215Y)
Assay: p24 reduction assay in MT-2 cells, virus 9GC
Assay type: cell-based, HIV-1
Conditions: Table 4; virus 9GC relative to wild type virus
Experimental: Cells. […] Antiviral Susceptibility Assays. The antiviral activity of each compound was determined by inoculating MT-2 cells with HIV-1LAI at a multiplicity of infection (MOI) of 0.01 TCID50/cell, followed by incubation in the presence of three-fold serial drug dilutions (3 wells per dilution) (see Mellors, et. al., Antimicrob. Agents Chemother. 39:1087-1092). […] The fold-resistance of a test virus is calculated by dividing the IC50 of the test virus by the IC50 of the HIV-1LAI control virus. […]

Compound | Fold-resistance
CCCCCCCCCCCCCCCCCCOC[C@H](COP(=O)(O)C(=O)O)OCC | (0)
CCCCCCCCCCCCCCCCCCOC[C@H](COP(=O)(O)C(=O)O)OC | (0)
O=C(O)P(=O)(O)O [PFA, phosphonoformate, reference compound] | (1.1)
CCCCCCCCCCCCCCCCCCOC[C@@H](O)COP(=O)(O)C(=O)O | (1.6)

====

test system: HIV-1LAI (wild type, control); test: p24 reduction assay in MT-2 cells, wild type virus; assay type: cell-based; conditions: Table 3; Wild type; mean ± SD, at least three experiments; read-out: EC50
Metric: EC50

Smi | Meas value
CCCCCCCCCCCCCCCCCCOC[C@H](COP(=O)(O)C(=O)O)OC | 500 nM
CCCCCCCCCCCCCCCCCCOC[C@@H](O)COP(=O)(O)C(=O)O | 1790 nM
CCCCCCCCCCCCCCCCCCOC[C@H](COP(=O)(O)C(=O)O)OCC | 650 nM

====

tested on: HIV-1LAI W88G; assay: p24 reduction assay in MT-2 cells, W88G; assay type: cell-based; conditions: Table 7; W88G relative to wild type virus
Listing: Fold-resistance of selected compounds

Compound | Fold-resistance
CCCCCCCCCCCCCCCCCCOC[C@H](COP(=O)(O)C(=O)O)OCC [EB-PFA, 1-O-octadecyl-2-O-ethyl-sn-glycero-3-PFA] | 0.64 (7.6)
CCCCCCCCCCCCCCCCCCOC[C@H](COP(=O)(O)C(=O)O)OC [MB-PFA] | 4.42 (7.6)
O=C(O)P(=O)(O)O [PFA, phosphonoformate, reference compound] | 14.28 (11.7)

====

test system: HIV-1LAI 4XAZT/M184V; experiment: p24 reduction assay in MT-2 cells, 4XAZT/M184V; format: cell-based; conditions: Table 5; 4XAZT/M184V relative to wild type virus
Metric: Fold-resistance

Compound | Meas value
CCCCCCCCCCCCCCCCCCOC[C@H](COP(=O)(O)C(=O)O)OCC | (0.9)
CCCCCCCCCCCCCCCCCCOC[C@@H](O)COP(=O)(O)C(=O)O | (1.3)
CCCCCCCCCCCCCCCCCCOC[C@H](COP(=O)(O)C(=O)O)OC | (1.2)
O=C(O)P(=O)(O)O [PFA, phosphonoformate, reference compound] | (1.3)

src = patent US20030207843A1
